FYI, the data here is from paper PMC5540273.

# Tested on: RIOK3;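 further: KINOMEscan kinase panel screen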
# conditions: concentration: 1 μM, replicates: in singlicate; n = 1
Each item that follows carries a reported %Inh.
reported.metric: %Inh (%)

compound: O=C(NCCNc1ccnc(Nc2ccc(F)cc2)n1)Nc1ccc2c(c1)OCO2 [GSK1379882]
measurement: 15

compound: COc1cccc(-n2cnc3c(N)ncnc32)c1 [SKF-97416]
measurement: 0

compound: COc1cc2ncn(-c3cc(OCc4ccncc4Br)c(C(N)=O)s3)c2cc1OC [GW854278]
measurement: 39

compound: COc1cc(Nc2nccc(N3CCC(NC(=O)C4COc5ccccc5O4)C3)n2)cc(OC)c1OC (stereo not shown) [GSK1379761]
measurement: 43

compound: Cl.NS(=O)(=O)c1cccc(Nc2cc(-c3ccc(F)cc3)n[nH]2)c1 [GW824645]
measurement: 11

compound: CCCNC(=O)Nc1ccc(Oc2ncnc3ccn(C)c23)cc1
measurement: 14

compound: COc1cccc(C2=C(Nc3cccc(C(=O)O)c3)C(=O)NC2=O)c1 [SB-390770]
measurement: 0

compound: CCC(=O)c1c(-c2ccccc2)c2cc(Cl)ccc2c(=O)n1Cc1ccc(C(=O)O)cc1
measurement: 23

compound: COc1ccc(-c2cc3c(C)nc(N)nc3n([C@H]3CC[C@H](O)CC3)c2=O)cn1
measurement: 0

compound: O=C(NCc1cccs1)c1cc(C(=O)c2c(Cl)cccc2Cl)c[nH]1 [GW823670]
measurement: 0

compound: CN1C(=O)C(Nc2cc(Cl)c(O)c(Cl)c2)=C(c2ccc(Cl)cc2)C1=O [SB-404321]
measurement: 0

compound: COC(=O)c1c(-c2ccccc2)c2cc(Br)ccc2c(=O)n1Cc1ccc(S(C)(=O)=O)cc1
measurement: 0

compound: FC(F)(F)c1ccc(-c2ncn(CCCN3CCOCC3)c2-c2ccncc2)cc1 [SB-217780]
measurement: 50

compound: Cc1cc(Nc2nc(-c3cccc(C)n3)nc3ccccc23)ccn1 [GW872411]
measurement: 0

compound: O=C(Nc1n[nH]c2nc(-c3ccccc3)c(Cl)cc12)C1CC1 [SB-734909]
measurement: 7

compound: CCc1ccc(-c2ccc3c(c2)-c2nn(C)cc2S(=O)(=O)N3C)cc1
measurement: 0

compound: O=c1cc(N2CCOCC2)nc2n(Cc3ccc(F)c(Cl)c3)ccn12 [GSK2297099]
measurement: 14

compound: Cc1ccc(-c2ccc3c(ccc4sc5c(c43)NC[C@@H](C)N=C5N(C)C)n2)cn1
measurement: 0

compound: Cc1cccc(-c2cc(-c3c[nH]nc3-c3ccccn3)ccn2)c1 [GW679395]
measurement: 0
